Entries and their TGI
- System: IGROV1 ovarian
- protocol summary: NCI tumour cell line growth inhibition, 48 h

Below, 4 molecules whose answers are already recorded.
| molecule | experimental system | TGI |
| --- | --- | --- |
| O=c1[nH]c2ccccc2nc1/C=C(\O)c1ccccc1O | IGROV1 ovarian | > 100 µM |
| COc1ccc([C@@H]2CC(=O)N2)cc1 | IGROV1 ovarian | > 100 µM |
| C=C1C(=O)O[C@@H]2[C@H](O)[C@@H](C)[C@@H]3C=CC(=O)[C@@]3(C)[C@@H](OC(=O)/C(C)=C/C)[C@H]12 | IGROV1 ovarian | 2.02 µM |
| Cc1cc2c(cc1Cl)S/C(=C/C(=O)O)C(Nc1ccc3ncsc3c1)=NS2(=O)=O | IGROV1 ovarian | > 100 µM |

Shifting focus to the molecule that follows.
*Q* Which measured TGI value corresponds to CCOP(=O)(OCC)C1CCCOC1=O (stereo not given) ?
*A* > 100 µM

---

Entries and their TGI
- Tested on: XF 498 CNS
- protocol summary: NCI tumour cell line growth inhibition, 48 h

*Q* Which measured TGI value corresponds to CCOP(=O)(OCC)C1CCCOC1=O (centres undefined) ?
*A* > 100 µM

*Q* Which measured TGI value corresponds to O=[N+]([O-])C(/C=N/Nc1ccccc1)/C=N/Nc1ccccc1 ?
*A* > 100 µM

---

- Tested on: SR leukemia
- protocol summary: NCI tumour cell line growth inhibition, 48 h; in the data active = GI50 below about 0.43 µM; inactive = the rest
# valid calls are T for active, F for inactive; nothing else

See these solved cases before continuing.
| compound | cat |
| --- | --- |
| CCC(C)[C@H](NC(=O)Nc1cc(C(F)(F)F)cc(C(F)(F)F)c1)C(=O)N[C@@H](Cc1cn(C)cn1)C(=O)OC (some centres undefined) | F |
| O=C(Nc1cccc(O)c1)c1ccc(NC2=C(Cl)C(=O)N(Cc3ccc(Cl)cc3Cl)C2=O)cc1 | T |

*Q* Test call for this compound, please: CCc1ccc(CCC(=O)Nc2ncc(Cc3ccc(Cl)cc3)s2)o1
*A* T

*Q* Test call for this compound, please: Nc1ccc(C2=CC(c3ccc(Cl)cc3)N3C=CSC3=N2)cc1 (centres undefined)
*A* F

*Q* Test call for this compound, please: Nc1nc([Se])c2ncn(C3OC(CO)C(O)C3O)c2n1 (centres undefined)
*A* F

*Q* Test call for this compound, please: Cn1cc(-c2ccc3cc(-c4ccc(CC(=O)Nc5cc(C(C)(C)C)on5)cc4)cnc3c2)cn1
*A* F

*Q* Test call for this compound, please: Cc1cc2c(cc1Cl)S/C(=C/C(=O)O)C(Nc1ccc3ncsc3c1)=NS2(=O)=O
*A* F

*Q* Test call for this compound, please: C[C@]12CC[C@H]3[C@@H](CC=C4C[C@@H](N5CCCC5)CC[C@@]43C)[C@@H]1C/C(=C\c1cccc(OCCN3CCOCC3)c1)[C@@H]2O
*A* F

*Q* Test call for this compound, please: CCN(CC)CCCNc1cc(OC)cc2nc3cc(Cl)ccc3nc12
*A* F

---

Entries and their GI50
- System: HOP-92 NSCLC
- protocol summary: NCI tumour cell line growth inhibition, 48 h

Below, 3 compounds whose answers are already recorded.
| compound | quantity name | measurement |
| --- | --- | --- |
| COc1ccc2c(c1OC)CO[C@@H]2[C@H]1c2c(cc3c(c2OC)OCO3)CCN1S(=O)(=O)c1cn(C)cn1 | GI50 | 783 nM |
| O=C1CC(c2cccc(F)c2)Nc2cc3c(cc21)OCO3 (stereo unspecified) | GI50 | 30800 nM |
| COc1ccc2c(c1)c(-c1nc(-c3c[nH]c4ccncc34)cs1)cn2C | GI50 | 1640 nM |

*Q* Which measured GI50 value corresponds to O=C(Nc1cccc(O)c1)c1ccc(NC2=C(Cl)C(=O)N(Cc3ccc(Cl)cc3Cl)C2=O)cc1 ?
*A* 1860 nM

*Q* Which measured GI50 value corresponds to CCc1ccc(CCC(=O)Nc2ncc(Cc3ccc(Cl)cc3)s2)o1 ?
*A* 4610 nM

*Q* Which measured GI50 value corresponds to CC1=C(SCCC(=O)OC(C[Se]C2=C(C)C(=O)c3ccccc3C2=O)C(=O)NCCCCCC(=O)OCc2ccccc2)C(=O)c2ccccc2C1=O (stereo unspecified) ?
*A* 2700 nM
